Hello, the source for this data is ChEMBL document CHEMBL4842376, in case you need it.

System: Hep 3B2
Experiment: cells
Type: functional, cell-based
Conditions: Homo sapiens, Hep3B, 72 h
Description: Antiproliferative activity against human Hep3B cells assessed as inhibition of cell growth measured after 72 hrs by MTT assay
Answer each item with its documented pIC50.
Lab note — pIC50 values are minus log10 of concentrations in M.

Query block: Form entry - test system: Hep 3B2; read-out: pIC50; compound: Nc1nc2cc(-c3nn(CCCCCCCCC(=O)NO)c4ncnc(N)c34)ccc2o1
Result block: 5.05

Query block: Provide the documented pIC50 with Hep 3B2 as the system for Nc1ncnc2c1c(-c1cnc3[nH]ccc3c1)nn2CCCCCCC(=O)NO
Result block: 4.58

Query block: What reported pIC50 corresponds to Nc1nc2cc(-c3nn(CCCCCC(=O)NO)c4ncnc(N)c34)ccc2o1 on Hep 3B2?
Result block: 4.47

Query block: Notebook entry, Hep 3B2 assay: pIC50 of Nc1nc2cc(-c3nn(CCCCC(=O)NO)c4ncnc(N)c34)ccc2o1 = ?
Result block: 4.47

Query block: I'm curious: which pIC50 was measured for Nc1nc2cc(-c3nn(CCCCCCC(=O)NO)c4ncnc(N)c34)ccc2o1 tested on Hep 3B2?
Result block: 4.86

Query block: Look up pIC50 with Hep 3B2 for this compound: CC(C)n1nc(-c2ccc3oc(N)nc3c2)c2c(N)ncnc21 [SAPANISERTIB]
Result block: 5.35

Query block: Requested read-out pIC50, target or system Hep 3B2, entry Nc1ncnc2c1c(-c1cnc3[nH]ccc3c1)nn2CCCCCCCC(=O)NO
Result block: 4.79

Query block: GET /values?readout=pIC50&system=Hep 3B2&item= Nc1ncnc2c1c(-c1cnc3[nH]ccc3c1)nn2CCCCCCCCCC(=O)NO
Result block: 4.77

Query block: Lab request: please report pIC50 under test system Hep 3B2 for Nc1nc2cc(-c3nn(CCCCCCCCCC(=O)NO)c4ncnc(N)c34)ccc2o1
Result block: 4.54

Query block: Missing value: pIC50, Hep 3B2, entry Nc1ncnc2c1c(-c1cnc3[nH]ccc3c1)nn2CCCCCCCCC(=O)NO . Fill in?
Result block: 5.08

Query block: Request body: readout pIC50, system Hep 3B2, query Nc1nc2cc(-c3nn(CCCCCCCC(=O)NO)c4ncnc(N)c34)ccc2o1 . Return the value.
Result block: 4.99
